The measurements presented in this section are drawn from the Immune Epitope Database (IEDB).

Target: HLA-B*58:01
Experiment: IEDB peptide-MHC binding, purified MHC/direct/fluorescence; filed as Kd, often an IC50 or EC50 that approximates it; bounds were set here for any values at or beyond the usual limits of such assays
Settings: source organism: Vibrio cholerae
pKd: −log10 of the molar value.
Give pKd for every item shown.

{"columns": ["RESIDUE STRING", "pKd"],
 "data": [
  ["GKFFAQAFL", "≤ 4.70"]
]}

With those in mind, consider the next sequence.
Observed pKd, HLA-B*58:01, "SVMPAWQEK" : ≤ 4.70

---

Target: HLA-B*27:03
Assay: IEDB peptide-MHC binding, purified MHC/competitive/fluorescence; filed as Kd, often an IC50 or EC50 that approximates it; bounds were set here for any values at or beyond the usual limits of such assays
Conditions: source organism: Campylobacter jejuni subsp. jejuni NCTC 11168 = ATCC 700819
PARAMETER MEASURED: Kd

In plain terms, "LELAEITAE" has a documented Kd of ≥ 20 µM

---

Target: HLA-A*26:01
Experiment: IEDB peptide-MHC binding, purified MHC/competitive/fluorescence; filed as Kd, often an IC50 or EC50 that approximates it; bounds were set here for any values at or beyond the usual limits of such assays
Conditions: source organism: Escherichia coli 536
PARAMETER MEASURED: pKd
Give bare numbers, as −log10 of the molar value.

The reported pKd of the sequence "AVASLLDEY" was 6.06

---

Molecular target: HLA-A*29:02
Assay: IEDB peptide-MHC binding, purified MHC/competitive/fluorescence; filed as Kd, often an IC50 or EC50 that approximates it; bounds were set here for any values at or beyond the usual limits of such assays
Conditions: source organism: Salmonella enterica subsp. enterica serovar Paratyphi A str. AKU_12601
pKd: −log10 of the molar value.
PARAMETER MEASURED: pKd

So, "AMDTHLYFE" ? Its pKd was ≤ 4.70

---

Target: HLA-A*02:01
Assay: IEDB peptide-MHC binding, purified MHC/direct/fluorescence; filed as Kd, often an IC50 or EC50 that approximates it; bounds were set here for any values at or beyond the usual limits of such assays
Conditions: source organism: Reston ebolavirus - Reston
pKd: −log10 of the molar value.
PARAMETER MEASURED: pKd

"SKLRALLTL" on HLA-A*02:01 gives pKd = ≤ 4.70

---

Target: HLA-A*02:01
Experiment: IEDB peptide-MHC binding, purified MHC/competitive/radioactivity; filed as Kd, often an IC50 or EC50 that approximates it; bounds were set here for any values at or beyond the usual limits of such assays
Conditions: source organism: Homo sapiens
Would you kindly list Kd for each of these sequences?
Give bare numbers, in nM.

{"columns": ["RESIDUE STRING", "SUBJECT OF TEST", "Kd (nM)"],
 "data": [
  ["KLEEEQIIL", "HLA-A*02:01", 72.1]
]}

Then there is this sequence:
For record "LLMWITQCFL" the listed Kd is 43

---

Molecular target: HLA-A*26:01
Experiment: IEDB peptide-MHC binding, purified MHC/direct/fluorescence; filed as Kd, often an IC50 or EC50 that approximates it; bounds were set here for any values at or beyond the usual limits of such assays
Conditions: source organism: Mycobacterium tuberculosis str. Haarlem
PARAMETER MEASURED: Kd (µM)
Answers are plain numbers, in µM.

sequence "LPAEVRAAF" , Kd observed: 0.889

---

Target: HLA-B*27:03
Test: IEDB peptide-MHC binding, purified MHC/direct/fluorescence; filed as Kd, often an IC50 or EC50 that approximates it; bounds were set here for any values at or beyond the usual limits of such assays
Settings: source organism: Entamoeba histolytica HM-1:IMSS
pKd: −log10 of the molar value.
PARAMETER MEASURED: pKd

Lab note: measured pKd of "FIILSTGKY" was ≤ 4.70

---

Target: HLA-B*44:02
Test: IEDB peptide-MHC binding, purified MHC/direct/fluorescence; filed as Kd, often an IC50 or EC50 that approximates it; bounds were set here for any values at or beyond the usual limits of such assays
Conditions: source organism: Sudan virus - Boniface, Sudan,1976
PARAMETER MEASURED: Kd

Record summary for "TMMRHRREL" : reported Kd = ≥ 20 µM

---

Biological target: HLA-B*58:01
Assay: IEDB peptide-MHC binding, purified MHC/competitive/fluorescence; filed as Kd, often an IC50 or EC50 that approximates it; bounds were set here for any values at or beyond the usual limits of such assays
Conditions: source organism: Orthohantavirus sinnombreense
PARAMETER MEASURED: pKd
Give bare numbers, as −log10 of the molar value.

Lab note: measured pKd of "GSFRKICGF" was 6.60

---

Target: HLA-A*30:02
Test: IEDB peptide-MHC binding, purified MHC/competitive/radioactivity; filed as Kd, often an IC50 or EC50 that approximates it; bounds were set here for any values at or beyond the usual limits of such assays
Details: source organism: Dengue virus 2 Jamaica/1409/1983
PARAMETER MEASURED: Kd
Give the value; after it, write the unit.

Below: 3 sequences and their reported Kd.
{"columns": ["RESIDUE STRING", "Kd"],
 "data": [
  ["ITASILLWY", "550 nM"],
  ["KAKGSRAIWY", "6.68 nM"],
  ["RSCTLPPLRY", "15.5 nM"]
]}

Let's switch to this sequence now.
Record "KNENDQYIY" has HLA-A*30:02 Kd equal to 0.15 nM

---

Molecular target: HLA-B*46:01
Assay: IEDB peptide-MHC binding, purified MHC/competitive/fluorescence; filed as Kd, often an IC50 or EC50 that approximates it; bounds were set here for any values at or beyond the usual limits of such assays
Settings: source organism: Mycobacterium tuberculosis variant bovis BCG str. Pasteur 1173P2
pKd: −log10 of the molar value.
PARAMETER MEASURED: pKd

Test item "KPIPHRTVL" ; HLA-B*46:01; reported pKd was ≤ 4.70

---

Target: HLA-B*15:01
Assay: IEDB peptide-MHC binding, purified MHC/competitive/fluorescence; bounds were set here for any values at or beyond the usual limits of such assays
Conditions: source organism: Sudan ebolavirus
PARAMETER MEASURED: pIC50
One number for each entry, as −log10 of the molar value.

{"columns": ["RESIDUE STRING", "QUANTITATIVE READOUT"],
 "data": [
  ["SQIPSSSPT", 5.07]
]}

Switching to the query record.
"SSYYATSYL" has a reported pIC50 of 4.62

---

Molecular target: HLA-A*02:12
Test: IEDB peptide-MHC binding, purified MHC/direct/fluorescence; filed as Kd, often an IC50 or EC50 that approximates it; bounds were set here for any values at or beyond the usual limits of such assays
Conditions: source organism: Orthohantavirus negraense
pKd: −log10 of the molar value.
PARAMETER MEASURED: pKd

Item: "SLLFREVWK" | System: HLA-A*02:12 | pKd: ≤ 4.70

---

Target: HLA-B*15:01
Assay: IEDB peptide-MHC binding, purified MHC/direct/fluorescence; filed as Kd, often an IC50 or EC50 that approximates it; bounds were set here for any values at or beyond the usual limits of such assays
Conditions: source organism: Marburg virus - Musoke, Kenya, 1980
PARAMETER MEASURED: Kd

Given item "ISDPLTSGL" , the value recorded as its Kd is ≥ 20 µM

---

Target: HLA-A*33:01
Experiment: IEDB peptide-MHC binding, purified MHC/competitive/radioactivity; filed as Kd, often an IC50 or EC50 that approximates it; bounds were set here for any values at or beyond the usual limits of such assays
Conditions: source organism: Mammarenavirus choriomeningitidis
pKd: −log10 of the molar value.
PARAMETER MEASURED: pKd

Note to self: pKd recorded for "SAFNKKHFDH" was ≤ 4.54

---

Target: HLA-B*08:01
Assay: IEDB peptide-MHC binding, purified MHC/direct/fluorescence; filed as Kd, often an IC50 or EC50 that approximates it; bounds were set here for any values at or beyond the usual limits of such assays
Conditions: source organism: Vibrio parahaemolyticus
PARAMETER MEASURED: Kd

The sequence "IRSCWRYRK" on HLA-B*08:01: Kd was ≥ 20 µM

---

Target: HLA-B*58:01
Assay: IEDB peptide-MHC binding, purified MHC/competitive/radioactivity; filed as Kd, often an IC50 or EC50 that approximates it; bounds were set here for any values at or beyond the usual limits of such assays
Conditions: source organism: Dengue virus 1 Brazil/97-11/1997
PARAMETER MEASURED: Kd (µM)
Give bare numbers, in µM.

Input "KSWPLNEGI" . Output Kd: 0.0703

---

Molecular target: HLA-A*02:12
Assay: IEDB peptide-MHC binding, purified MHC/direct/fluorescence; filed as Kd, often an IC50 or EC50 that approximates it; bounds were set here for any values at or beyond the usual limits of such assays
Settings: source organism: Bacillus anthracis str. A0488
pKd: −log10 of the molar value.
PARAMETER MEASURED: pKd

Lab book: pKd of "WDAYIPHYV" noted as ≤ 4.70
